# System: HeLa cells
# assay.name: MTT cytotoxicity assay on HeLa cells
# Assay type: cell-based, human
# study.conditions: Homo sapiens, HeLa, 72 h, MTT, 72 h continuous exposure, triplicate, range 0.05 to 50 µM
pIC50: −log10 of the molar value.
Outcome label depends on pIC50 relative to 5: at/above gives T, below gives F.

CCCCCCn1cnc2c(NCc3ccccc3)nc(NCc3ccccc3)nc21 : T
CCCCn1cnc2c(NCc3ccc(OC)cc3)nc(NCc3ccccc3)nc21 : T
COc1ccc(CNc2nc(NCc3ccccc3)nc3c2ncn3CC(C)C)cc1 : T
COc1ccc(CNc2nc(NCc3ccccc3)nc3c2ncn3CCC(C)C)cc1 : T
CC(C)CCn1cnc2c(NCc3ccccc3)nc(NCc3ccccc3)nc21 : T
CC(C)n1cnc2c(NCc3ccccc3)nc(NCc3ccccc3)nc21 : F

* * *

# System: Vero cells
# assay.name: MTT cytotoxicity assay on Vero cells
# Type: cell-based
# study.conditions: Chlorocebus sabaeus, 72 h continuous exposure, triplicate, range 0.05 to 50 µM
Quick reference for IC50 among some molecules
endpoint.name: IC50 (µM)

CCCCCCn1cnc2c(NCc3ccc(OC)cc3)nc(NCc3ccccc3)nc21 : 15
CCCCn1cnc2c(NCc3ccccc3)nc(NCc3ccccc3)nc21 : 5.6
CCCCCn1cnc2c(NCc3ccc(OC)cc3)nc(NCc3ccccc3)nc21 : 26
CCCCn1cnc2c(NCc3ccc(OC)cc3)nc(NCc3ccccc3)nc21 : 17
COc1ccc(CNc2nc(NCc3ccccc3)nc3c2ncn3C(C)C)cc1 : 15
CCCCCCn1cnc2c(NCc3ccccc3)nc(NCc3ccccc3)nc21 : 26
COc1ccc(CNc2nc(NCc3ccccc3)nc3c2ncn3CC(C)C)cc1 : 1.9
CC(C)Cn1cnc2c(NCc3ccccc3)nc(NCc3ccccc3)nc21 : 22
COc1ccc(CNc2nc(NCc3ccccc3)nc3c2ncn3CCC(C)C)cc1 : 34

* * *

Quick reference for IC50 among some compounds
# Tested on: HeLa cells
# assay.name: MTT cytotoxicity assay on HeLa cells
# Format: cell-based, human
# study.conditions: Homo sapiens, HeLa, 72 h, MTT, 72 h continuous exposure, triplicate, range 0.05 to 50 µM
endpoint.name: IC50 (µM)

CCCCCn1cnc2c(NCc3ccc(OC)cc3)nc(NCc3ccccc3)nc21 : 9.5
CCCCCn1cnc2c(NCc3ccccc3)nc(NCc3ccccc3)nc21 : 10.1
CCCCCCn1cnc2c(NCc3ccc(OC)cc3)nc(NCc3ccccc3)nc21 : 9
CCCCn1cnc2c(NCc3ccccc3)nc(NCc3ccccc3)nc21 : 18

* * *

# Tested on: HL-60 (leukemia) cells
# assay.name: MTT cytotoxicity assay on HL-60 cells
# Type: cell-based, human
# study.conditions: Homo sapiens, HL-60, 72 h, 72 h continuous exposure, triplicate, range 0.05 to 50 µM
pIC50: −log10 of the molar value.
Quick reference for pIC50 among some compounds
endpoint.name: pIC50

COc1ccc(CNc2nc(NCc3ccccc3)nc3c2ncn3CCC(C)C)cc1 : < 4.30
CCCCn1cnc2c(NCc3ccc(OC)cc3)nc(NCc3ccccc3)nc21 : < 4.30
CCCCCn1cnc2c(NCc3ccccc3)nc(NCc3ccccc3)nc21 : < 4.30
COc1ccc(CNc2nc(NCc3ccccc3)nc3c2ncn3CC(C)C)cc1 : < 4.30
CC(C)CCn1cnc2c(NCc3ccccc3)nc(NCc3ccccc3)nc21 : < 4.30
CCCCCn1cnc2c(NCc3ccc(OC)cc3)nc(NCc3ccccc3)nc21 : < 4.30
CC(C)Cn1cnc2c(NCc3ccccc3)nc(NCc3ccccc3)nc21 : < 4.44
CCCCCCn1cnc2c(NCc3ccccc3)nc(NCc3ccccc3)nc21 : < 4.30
CC(C)n1cnc2c(NCc3ccccc3)nc(NCc3ccccc3)nc21 : 4.59
